Data credit: ChEMBL document CHEMBL6078677

Recorded hemolysis at 1 h, 4 times of MIC values for a group of molecules are listed next.
test: Hemolytic activity in Kunming mouse erythrocytes assessed as hemolysis at 4 times of MIC measured after 1 hrs by absorbance based assay relative to control; format: toxicity, cell-based, Erythrocyte; settings: read-out: Activity
Express your answer in %, writing the number without its unit.

{"columns": ["molecule", "hemolysis at 1 h, 4 times of MIC, %"],
 "data": [
  ["CC1C/C(=C\\c2ccc(-c3ccc(Cl)c(C(F)(F)F)c3)s2)c2nc3ccccc3c(C(=O)O)c2C1 (racemic)", 0.65],
  ["CCCCCCc1ccc(-c2ccc(/C=C3\\CC(C)Cc4c3nc3ccc(OC)cc3c4C(=O)O)cn2)cc1 (racemic)", 0.98]
]}

Turning now to a further record.
Return the recorded hemolysis at 1 h, 4 times of MIC value; entry: COc1ccc2nc3c(c(C(=O)O)c2c1)CC(C)C/C3=C\c1cccc(-c2ccc(Cl)c(C(F)(F)F)c2)c1 (racemic)
1.8

====

tested on: Enterococcus faecium; experiment: Antimicrobial activity against Enterococcus faecium MC38 harboring erythromycin resistance rRNA methylase B and oxazolidinone-phenicol transferable resistance gene assessed as inhibition of visible growth of bacteria incubated for 20 hrs by broth microdilution method; format: functional
Recorded measurements of MIC, one per entry
Answer with a number only, understood to be in µg/mL.

{"columns": ["compound", "test_result"],
 "data": [
  ["C[C@H]1c2cccc(O)c2C(=O)C2=C(O)[C@]3(O)C(=O)C(C(N)=O)=C(O)[C@@H](N(C)C)[C@@H]3[C@@H](O)[C@@H]21 [DOXYCYCLINE ANHYDROUS]", 16],
  ["CC1C/C(=C\\c2ccc(-c3ccc(Cl)c(C(F)(F)F)c3)s2)c2nc3ccccc3c(C(=O)O)c2C1 (racemic)", 2]
]}

# evaluate next
Give the observed MIC of `CC1(C)S[C@@H]2[C@H](NC(=O)[C@H](N)c3ccccc3)C(=O)N2[C@H]1C(=O)O` for Enterococcus faecium.
32

====

test: Cytotoxicity against human HEp-2 cells assessed as cell viability at 8 times of MIC incubated for 48 hrs by CCK8 assay (reference value: 100 %); type: toxicity, cell-based; settings: read-out: Activity
viability at 48 h, 8 times of MIC: recorded values

Before answering, review these 2 worked examples.
{"columns": ["compound", "test_result"],
 "data": [
  ["CC1C/C(=C\\c2ccc(-c3ccc(Cl)c(C(F)(F)F)c3)s2)c2nc3ccccc3c(C(=O)O)c2C1 (racemic)", "82.5%"],
  ["CCCCCCc1ccc(-c2ccc(/C=C3\\CC(C)Cc4c3nc3ccc(OC)cc3c4C(=O)O)cn2)cc1 (racemic)", "39%"]
]}

Read off the recorded viability at 48 h, 8 times of MIC for COc1ccc2nc3c(c(C(=O)O)c2c1)CC(C)C/C3=C\c1cccc(-c2ccc(Cl)c(C(F)(F)F)c2)c1 (racemic)
35.5%

====

experiment: Cytotoxicity against human HEp-2 cells assessed as cell viability at 4 times of MIC incubated for 48 hrs by CCK8 assay (reference value: 100 %); type: toxicity, cell-based; details: read-out: Activity
quantity_name: viability at 48 h, 4 times of MIC (%)
Output spec: scalar in %, unitless text.

Indicate the recorded viability at 48 h, 4 times of MIC value for this compound: CC1C/C(=C\c2ccc(-c3ccc(Cl)c(C(F)(F)F)c3)s2)c2nc3ccccc3c(C(=O)O)c2C1 (racemic)
91.4

Look up and report measured viability at 48 h, 4 times of MIC for this entry: CCCCCCc1ccc(-c2ccc(/C=C3\CC(C)Cc4c3nc3ccc(OC)cc3c4C(=O)O)cn2)cc1 (racemic)
64

Using known records, supply viability at 48 h, 4 times of MIC for COc1ccc2nc3c(c(C(=O)O)c2c1)CC(C)C/C3=C\c1cccc(-c2ccc(Cl)c(C(F)(F)F)c2)c1 (racemic)
66
